# target: T1, ubiquitin mutein 77404
# T1 construct: also called Affilin-77404
# test_protocol: SPR (Biacore 3000), ligand multimer immobilised, ubiquitin mutein in solution
measured_parameter: Kd (nM)
Numeric answer only, unit nM assumed.

Kd in this record for SEQ1 tetramer (216001) (designed binder) NAAMDDFAQYSAWAEIEALPNLTEMQKDQFIWSLMFDPSVSKEVLGEAQKLNDSQAPKQAPKVDAKFDQAPKVDAKFDNAAMDDFAQYSAWAEIEALPNLTEMQKDQFIWSLMFDPSVSKEVLGEAQKLNDSQAPKQAPKVDAKFDQAPKVDAKFDNAAMDDFAQYSAWAEIEALPNLTEMQKDQFIWSLMFDPSVSKEVLGEAQKLNDSQAPKQAPKVDAKFDQAPKVDAKFDNAAMDDFAQYSAWAEIEALPNLTEMQKDQFIWSLMFDPSVSKEVLGEAQKLNDSQAPKC : 0.6
